ASSAY_NAME: Tissue levels after 2-hour IV infusion in rats
Assay type: in vivo, rat
PARTICULARS: rat pancreas; 4 h after end of 2-hour IV infusion, 10 mg/kg
Procedure: Levels of EPIs in various tissues were evaluated after 2-hour IV infusion in rats. The rats received 10 mg/kg IV infusion through FVC. Animals were divided into 2 groups: group 1 was sacrificed immediately after the end of infusion and group 2, 2 h or 4 h after the end of infusion. Tissues from each animal were collected, homogenized and compounds were extracted. Tissues were mixed with saline at 1:1 ratio (v/w) in 12×75 mm polypropylene round bottom tubes. […]
READOUT_TYPE: concentration at 6 h

1) NCCC[C@H](N)C(=O)N[C@H](Cc1ccc(C(F)(F)F)cc1)C(=O)Nc1cnc2ccccc2c1 [Compound 21]
0.47 µg/mL

These measurements were taken from patent US7879795B2.
